system: SK-MEL-2 melanoma; test: NCI tumour cell line growth inhibition, 48 h
Where a SMILES comes first, the peptide text is derived from it. The star is where a group is joined. Boc = CC(C)(C)OC(=O)*
ENDPOINT NAME: TGI

INSERT INTO measurements (compound, result) VALUES
  ('N=S(=O)(c1ccccc1)c1ccccc1', '> 100 µM'),
  ('Cc1c(-c2coc(-c3ccccc3)n2)c(=O)n(-c2ccccc2)n1C', '> 100 µM'),
  ('CSCCC(NC(=O)C(CC(C)C)NC(=O)C1CCCN1C(=O)C(Cc1ccccc1)NC(=O)C(Cc1ccccc1)NC(=O)C(CCC(=O)O)NC(=O)OC(C)(C)C)C(N)=O (centres undefined) (Boc-EFFPLM-NH2; configuration not given here)', '> 100 µM'),
  ('COc1cc(N)c2[nH]c3c(C)ccc(C)c3c2c1', '> 100 µM'),
  ('C=CCNc1nc(O)c(/C=C2\C=Nc3ncccc32)s1', '5.09 µM'),
  ('COc1cc(-c2nn(-c3cccc(NC(=O)NCCNS(=O)(=O)c4ccc(Cl)cc4)c3)cc2-c2ccncc2)ccc1Cl', '2.81 µM'),
  ('COc1ccc(OC)c(NC2=NCCO2)c1', '> 100 µM'),
  ('COc1cc(OCc2nc3cc(C(F)(F)F)ccc3nc2-c2ccccc2)cc(OC)c1OC', '> 100 µM');

Switching to the query record.
### Prompt Sample CCCCCCCCCCCC[N+](C)(C)Cc1ccccc1 — what was its TGI?
### Response 3.6 µM
